Provide the recorded % inhibition Apo pol 10' for the entries that follow.
# assayed.system: P. falciparum apicoplast DNA polymerase (Pf-apPOL) (Plasmodium falciparum, UniProt Q8ILY1)
# Sequence (Q8ILY1 entry or part of it): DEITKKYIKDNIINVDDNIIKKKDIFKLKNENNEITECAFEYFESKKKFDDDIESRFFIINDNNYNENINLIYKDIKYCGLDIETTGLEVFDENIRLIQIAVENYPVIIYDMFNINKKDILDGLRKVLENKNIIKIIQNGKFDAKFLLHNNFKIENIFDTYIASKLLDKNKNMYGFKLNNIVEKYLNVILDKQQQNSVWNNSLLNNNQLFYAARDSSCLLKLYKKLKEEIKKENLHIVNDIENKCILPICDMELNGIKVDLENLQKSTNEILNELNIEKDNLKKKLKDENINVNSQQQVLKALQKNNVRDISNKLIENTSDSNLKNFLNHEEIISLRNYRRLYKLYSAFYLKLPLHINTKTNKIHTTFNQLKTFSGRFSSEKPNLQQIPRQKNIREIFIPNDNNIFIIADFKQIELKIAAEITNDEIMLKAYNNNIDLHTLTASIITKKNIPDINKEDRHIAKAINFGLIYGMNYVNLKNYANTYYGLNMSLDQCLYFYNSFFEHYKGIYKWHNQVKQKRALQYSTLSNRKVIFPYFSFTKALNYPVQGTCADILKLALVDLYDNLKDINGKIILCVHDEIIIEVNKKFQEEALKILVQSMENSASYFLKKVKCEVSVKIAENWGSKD
# experiment.description: Fluorescence-based high-throughput DNA polymerase assay (molecular beacon), primary screen and dose-response
# Type: biochemical
# assay.setup: DRC-1; 10'; concentration 5
Numbers only, in %.

Example cases with answers are listed next.
O=C(Cn1ccc2c(=O)[nH]ccc21)Nc1cccc(Cl)c1 [Molecule 23, O=C(Cn1ccc2c1cc[nH]c2=O)Nc1cccc(c1)Cl] :: 14.8384
O=C(Cc1cc(=O)[nH]c(SCc2ccccc2)n1)Nc1ccc2c(c1)OCO2 [Molecule 46] :: 2.643
O=C1NCCCn2cc(S(=O)(=O)Nc3ccccc3)cc21 [KU0214835] :: 6.352
O=C(O)c1c(F)c(F)c(-c2c(F)c(F)c(C(=O)O)c(F)c2F)c(F)c1F [KU0008974] :: 13.4595
O=C(NCC1CCN(C2CCCC2)CC1)C(=O)NC1CCCC1 [KU0199596] :: -3.723

Hi team, please reply with % inhibition Apo pol 10' for each item in this list.
1. COc1ccc(C(=O)N2CCc3c(nc4cc(-c5ccccc5Cl)[nH]n4c3=O)C2)cn1 [Molecule 26]
2. CN(C)S(=O)(=O)Oc1ccc(-c2noc(-c3ccc(Oc4cc(Cl)cc(Cl)c4)o3)n2)cc1 [KU0263859]
3. O=C(CSc1nc2ccccc2s1)Nc1ncc([N+](=O)[O-])s1 [KU0019667]
4. COc1ccc(C(=O)Nc2cccc(-c3nc4ncccc4o3)c2)cc1[N+](=O)[O-] [KU0063313]

Return:
1. 20
2. 17.153
3. 29.1635
4. 2.852

Hi team, please reply with % inhibition Apo pol 10' for each item in this list.
1. O=C(NNC(=O)c1ccc(Cl)cc1)C(=O)NNC(=O)c1ccc(Cl)cc1 [Molecule 25]
2. CCCCCCCCCCCC1SCC(C(=O)O)N1C(C)=O (stereo not shown) [Molecule 72]
3. O=C(O)c1ccc(-c2nc3cc(-c4ccc5nc(-c6ccc(C(=O)O)cc6)[nH]c5c4)ccc3[nH]2)cc1 [Molecule 1]
4. CC1(C)CC(=O)C2=C(C1)OC1=C(C(=O)CC(C)(C)C1)C2c1ccc(O)cc1 [KU0194226]
5. CCCCCCCCCCCCCCCCCC(=O)CCN(C)C [KU0271928]

Return:
1: 29.8674; 2: 5.699; 3: 47.5072; 4: 6.619; 5: 8.002

Hi team, please reply with % inhibition Apo pol 10' for each item in this list.
1. COc1ccc(NC(=O)Cn2ccc3c(=O)[nH]ccc32)cc1Cl [Molecule 10, COc1ccc(cc1Cl)NC(=O)Cn1ccc2c1cc[nH]c2=O]
2. Cc1ccc(C)n1-c1ccc(C(=O)NNC(=O)c2ccc3nccnc3c2)cc1 [Molecule 53]
3. Cc1ccc(C(=O)/C=C/C=C/C=C/N(C)C)o1 [Molecule 96, CN(/C=C/C=C/C=C/C(=O)c1ccc(o1)C)C]
4. N#CC(=NNc1cc(C(F)(F)F)cc(C(F)(F)F)c1)C(=O)c1ccco1 [KU0264276]
5. COc1ccc(C)cc1NC(=O)Cn1ccc2c(=O)[nH]ccc21 [Molecule 15, COc1ccc(cc1NC(=O)Cn1ccc2c1cc[nH]c2=O)C]
6. COc1ccc(-c2n[nH]cc2Oc2ccc(Cl)cc2)c(O)c1 [KU0029837]
7. O=C(CSc1nnc(-c2ccco2)[nH]1)c1ccc(Cl)cc1 [KU0029065]

Return:
41.0198
8.124
52.2247
17.153
31.9729
22.8396
33.7865

====

# assayed.system: P. falciparum apicoplast DNA polymerase (Pf-apPOL) (Plasmodium falciparum, UniProt Q8ILY1)
# experiment.description: Fluorescence-based high-throughput DNA polymerase assay (molecular beacon), primary screen and dose-response;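 as to % inhibition ApPOL 90': test concentration in µM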
# Type: biochemical
# assay.setup: DRC-2; concentration 5; 90'
Provide the recorded % inhibition ApPOL 90' for the entries that follow.
Answers are plain numbers, in %.

Example cases with answers are listed next.
COc1cc(/C=C2\C(=O)N(c3ccc(C(=O)O)cc3)N=C2C(F)(F)F)ccc1OCC(C)C [KU0069072] :: -7
CCCN1COc2ccc3c(=O)c(-c4ccccc4)coc3c2C1 [KU0199556] :: -8
O=C(O)c1cc([N+](=O)[O-])c(N2CCN(c3cccc(C(F)(F)F)c3)CC2)c([N+](=O)[O-])c1 [KU0076747] :: 15

Hi team, please reply with % inhibition ApPOL 90' for each item in this list.
1. Cc1cc(C)nc(Nc2nc(CC(=O)Nc3nc(-c4ccco4)cs3)cs2)n1 [Molecule 92]
2. COc1ccc(NC(=O)Cn2nc3c(cc2=O)CCC3)cc1Cl [Molecule 4, COc1ccc(cc1Cl)NC(=O)Cn1nc2CCCc2cc1=O]
3. O=C(Nc1c2c(nn1-c1ccccc1)CSC2)c1ccco1 [KU0055213]
4. COc1ccc(C=C2Oc3c(ccc4c3CN(Cc3ccco3)CO4)C2=O)c(OC)c1 [KU0199404]
5. Cc1ccc(C2=N/C(=C\c3ccc(I)o3)C(=O)O2)cc1[N+](=O)[O-] [KU0073890]

Return:
1: 6; 2: 54; 3: 32; 4: -6.4; 5: 29

====

# assayed.system: bacteriophage T4 DNA polymerase (Enterobacteria phage T4)
# Construct: made in house
# Sequence (P04415 whole entry): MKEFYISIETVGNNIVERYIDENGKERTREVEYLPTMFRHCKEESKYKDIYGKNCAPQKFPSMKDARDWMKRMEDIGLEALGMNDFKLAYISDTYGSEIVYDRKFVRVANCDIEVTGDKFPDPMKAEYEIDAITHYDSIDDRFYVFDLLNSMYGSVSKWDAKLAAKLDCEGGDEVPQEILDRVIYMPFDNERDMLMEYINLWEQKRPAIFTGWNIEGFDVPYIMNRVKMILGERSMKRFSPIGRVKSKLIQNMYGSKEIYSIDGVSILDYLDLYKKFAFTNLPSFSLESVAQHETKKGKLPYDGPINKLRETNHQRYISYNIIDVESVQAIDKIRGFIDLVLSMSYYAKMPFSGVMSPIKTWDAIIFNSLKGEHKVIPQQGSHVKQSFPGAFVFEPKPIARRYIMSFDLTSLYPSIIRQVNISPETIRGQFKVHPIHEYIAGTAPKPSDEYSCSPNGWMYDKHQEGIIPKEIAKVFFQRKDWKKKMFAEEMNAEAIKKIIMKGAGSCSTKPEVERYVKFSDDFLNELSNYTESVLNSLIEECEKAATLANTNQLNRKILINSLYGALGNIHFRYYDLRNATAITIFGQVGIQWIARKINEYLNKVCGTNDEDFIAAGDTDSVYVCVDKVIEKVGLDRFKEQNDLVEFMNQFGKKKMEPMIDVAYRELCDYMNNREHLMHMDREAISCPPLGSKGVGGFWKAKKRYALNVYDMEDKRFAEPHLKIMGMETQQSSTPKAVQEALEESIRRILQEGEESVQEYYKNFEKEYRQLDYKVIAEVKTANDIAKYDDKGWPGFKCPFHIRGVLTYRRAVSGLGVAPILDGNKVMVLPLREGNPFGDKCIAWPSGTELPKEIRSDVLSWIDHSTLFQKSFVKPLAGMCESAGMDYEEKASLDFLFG
# experiment.description: Counter-screen against bacteriophage T4 DNA polymerase
# Type: biochemical
# assay.setup: DRC-2; read at 180'; concentration 5
attribute.measured: % inhibition T4 180' 5 (%)
One number for each entry, in %.

Cc1cc2[nH]c(C(=O)Nc3ccc(F)cc3)c(CN3CCOCC3)c2s1 :: -2.8
C#CC(C=CC)OC(=O)c1ccccc1C(=O)O (centres unmarked) :: -11
CC(=O)Nc1cc(C(=O)c2cccs2)nn(-c2ccc(Cl)cc2)c1=O :: 0.673
CCCc1ccc(Oc2coc3cc(OC)ccc3c2=O)cc1 :: -7
Cc1ccc(N2CCC(NC(=O)Cc3cccs3)C2=O)cc1C (centres unmarked) :: 10

Hi team, please reply with % inhibition T4 180' 5 for each item in this list.
1. Cc1ccsc1Cn1c(C)ccc1C
2. Nc1cc(Oc2ccc(O)c(N)c2)ccc1O
3. CC(C)CC(C(=O)O)N1C(=O)C2C3C=CC(C2C1=O)C1C(=O)N(C(CC(C)C)C(=O)O)C(=O)C31 (centres unmarked)

Return:
[-9, -15, -1.88]

====

# assayed.system: P. falciparum apicoplast DNA polymerase (Pf-apPOL) (Plasmodium falciparum, UniProt Q8ILY1)
# experiment.description: Fluorescence-based high-throughput DNA polymerase assay (molecular beacon), primary screen and dose-response
# Type: biochemical
# assay.setup: DRC-1; 90'; concentration 40
# if value of % inhibition Apol 90' reaches 70%, tag 1 (yes); if it stays below, tag 0 (no)

A selection of reference data follows.
O=C(CSc1nnc(-c2ccco2)[nH]1)c1ccc(Cl)cc1 :: 1 (yes)
CO/N=C(\C(=O)N[C@@H]1C(=O)N2C(C(=O)[O-])=C(CSc3nc(=O)c([O-])nn3C)CSC12)c1csc(N)n1.[Na+].[Na+] (stereo partly drawn) :: 0 (no)
O=c1[nH]c2ccc([N+](=O)[O-])cc2c(-c2ccccc2)c1Sc1nc2ccccc2o1 :: 0 (no)

Enquiry: hey, is % inhibition Apol 90' for this one >= 70%? O=[N+]([O-])c1ccc(/C=C/c2ccc3ccccc3n2)o1
Return: 1 (yes)

Enquiry: hey, is % inhibition Apol 90' for this one >= 70%? COc1ccc(-c2cc(=O)c3cc(O)ccc3o2)cc1OC
Return: 0 (no)

Enquiry: hey, is % inhibition Apol 90' for this one >= 70%? O=C1N=C(Nc2cccc(Cl)c2Cl)S/C1=C\c1ccco1 [Molecule 3, O=C1N=C(S/C/1=C\c1ccco1)Nc1cccc(c1Cl)Cl]
Return: 1 (yes)

Enquiry: hey, is % inhibition Apol 90' for this one >= 70%? Cc1nn(CC(=O)NCCSCc2ccco2)c(C)c1Br
Return: 0 (no)

Enquiry: hey, is % inhibition Apol 90' for this one >= 70%? O=C(Nc1c2c(nn1-c1ccc(Oc3ccccc3)cc1)CSC2)c1ccco1
Return: 1 (yes)

Enquiry: hey, is % inhibition Apol 90' for this one >= 70%? CCOC(=O)C(NCc1ccco1)(NC(=O)c1ccco1)C(F)(F)F (stereo not drawn)
Return: 0 (no)

Enquiry: hey, is % inhibition Apol 90' for this one >= 70%? CCCCOC(=O)CCCCCN1C(=O)C(=Cc2ccc(OC)cc2)SC1=S
Return: 0 (no)

Enquiry: hey, is % inhibition Apol 90' for this one >= 70%? CC(C)(C)c1cc(C(=O)C(C#N)=NNc2cccc(Cl)c2)no1
Return: 1 (yes)

Enquiry: hey, is % inhibition Apol 90' for this one >= 70%? Cc1cc(C)cc(-n2nc3c(c2NC(=O)c2ccco2)CSC3)c1
Return: 1 (yes)

Enquiry: hey, is % inhibition Apol 90' for this one >= 70%? CS(=O)(=O)c1cccc(C(=O)Nc2nnc(-c3ccno3)o2)c1
Return: 0 (no)

Enquiry: hey, is % inhibition Apol 90' for this one >= 70%? O=C(Nc1cccc(C(=O)Nc2ccc(S(=O)(=O)[O-])c3cc(S(=O)(=O)[O-])cc(S(=O)(=O)[O-])c23)c1)Nc1cccc(C(=O)Nc2ccc(S(=O)(=O)[O-])c3cc(S(=O)(=O)[O-])cc(S(=O)(=O)[O-])c23)c1.[Na+].[Na+].[Na+].[Na+].[Na+].[Na+]
Return: 1 (yes)
